Experiment: Plasma protein binding in human
Assay type: ADME, cell-free
Conditions: read-out: PPB (converted)
Give 1 (yes) when the value for fraction unbound is at least 0.03. Give 0 (no) when it is less.

Example entries begin here.
Please tell me: is the compound "Cn1ccc(CCC[N+]23CCC(CC2)[C@@H](OC(=O)C2(C4=CC=CC4)CCCCCC2)C3)n1" at or over 0.03 in terms of fraction unbound? 1 (yes)

Can you handle "O=C(C[N+]12CCC(CC1)[C@@H](OC(=O)C1(C3=CC=CC3)CCCCCC1)C2)Nc1nncs1" next? 1 (yes)

Further cases:
Please tell me: is the compound "O=C(C[N+]12CCC(CC1)[C@@H](OC(=O)C1(C3=CC=CC3)CCCCCC1)C2)Nc1cnccn1" at or over 0.03 in terms of fraction unbound? 1 (yes)

Can you handle "O=C(O[C@H]1C[N+]2(Cc3cc(-c4ccccc4)on3)CCC1CC2)C1(C2=CC=CC2)CCCCCC1" next? 0 (no)

Can you handle "O=C(C[N+]12CCC(CC1)[C@@H](OC(=O)C1(C3=CC=CC3)CCCCCC1)C2)Nc1cc[nH]n1" next? 1 (yes)

Can you handle "O=C(O[C@H]1C[N+]2(Cc3nnc(-c4ccccc4)o3)CCC1CC2)C1(C2=CC=CC2)CCCCCC1" next? 1 (yes)

Can you handle "O=C(C[N+]12CCC(CC1)[C@@H](OC(=O)C1(C3=CC=CC3)CCCCCC1)C2)Nc1cccc(F)c1" next? 0 (no)

Can you handle "Cc1ccc(NC(=O)C[N+]23CCC(CC2)[C@@H](OC(=O)C2(C4=CC=CC4)CCCCCC2)C3)nc1" next? 0 (no)

Can you handle "O=C(O[C@H]1C[N+]2(CCc3ccccc3)CCC1CC2)C1(C2=CC=CC2)CCCCCC1" next? 0 (no)

Can you handle "NC(=O)C[N+]12CCC(CC1)[C@@H](OC(=O)C1(C3=CC=CC3)CCCCCC1)C2" next? 1 (yes)

====

Target: UniProtKB P20309
Sequence (P20309 whole entry): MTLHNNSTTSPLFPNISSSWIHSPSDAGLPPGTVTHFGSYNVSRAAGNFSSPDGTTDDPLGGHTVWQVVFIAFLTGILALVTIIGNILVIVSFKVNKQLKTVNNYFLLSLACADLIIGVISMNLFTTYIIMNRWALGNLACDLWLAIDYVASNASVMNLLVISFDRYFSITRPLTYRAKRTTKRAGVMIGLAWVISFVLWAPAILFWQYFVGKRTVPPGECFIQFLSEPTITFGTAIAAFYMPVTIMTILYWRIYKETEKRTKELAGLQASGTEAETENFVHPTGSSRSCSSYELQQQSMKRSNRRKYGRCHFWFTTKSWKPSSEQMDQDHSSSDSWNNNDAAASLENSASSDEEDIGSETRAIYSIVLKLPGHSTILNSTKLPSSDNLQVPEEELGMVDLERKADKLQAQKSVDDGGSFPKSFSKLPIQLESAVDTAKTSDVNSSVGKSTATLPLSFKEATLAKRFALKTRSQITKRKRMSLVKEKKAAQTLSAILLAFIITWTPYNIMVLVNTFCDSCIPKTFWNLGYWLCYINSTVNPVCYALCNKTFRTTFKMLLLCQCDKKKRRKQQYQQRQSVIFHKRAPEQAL
Assay: Displacement of [3H]NMS from recombinant human M3 receptor expressed in CHO-K1 cells after 16 hrs by SPA method
recordedEndpoint: IC50 (nM)
Just the number please, in nM, no unit attached.

What does the data say about its IC50? Entry: "O=C(O[C@H]1C[N+]2(Cc3nnc(-c4ccccc4)o3)CCC1CC2)C1(C2=CC=CC2)CCCCCC1" 0.316

Can you handle "C[N+]1(C)CCC(OC(=O)C2(c3ccccc3)CCCCCC2)CC1" next? 0.251

Further cases:
What does the data say about its IC50? Entry: "O=C(C[N+]12CCC(CC1)[C@@H](OC(=O)C1(C3=CC=CC3)CCCCCC1)C2)Nc1cc[nH]n1" 0.1

Can you handle "O=C(O[C@H]1C[N+]2(Cc3cc(-c4ccccc4)on3)CCC1CC2)C1(C2=CC=CC2)CCCCCC1" next? 0.0794

Can you handle "O=C(C[N+]12CCC(CC1)[C@@H](OC(=O)C1(C3=CC=CC3)CCCCCC1)C2)Nc1cccnc1" next? 0.2

Can you handle "O=C(C[N+]12CCC(CC1)[C@@H](OC(=O)C1(C3=CC=CC3)CCCCCC1)C2)NCCCNC(=O)c1ccccn1" next? 6.31

Can you handle "Cc1cc(NC(=O)C[N+]23CCC(CC2)[C@@H](OC(=O)C2(C4=CC=CC4)CCCCCC2)C3)no1" next? 0.158
